Reported IC50 values are given for each entry in this list.
- ASSAY SYSTEM: BRD4 BD1 (Homo sapiens)
- ASSAY COMMENT: AlphaScreen assay, BRD4 BD1 inhibition
- Type: binding
- ASSAY CONTEXT: Supplementary Table S2; mean of three independent measurements; 8-point titration from 0.0096 to 32 μM; read-out: IC50 (μM) for BD1

Here's what some known entries look like.
| COMPOUND | ASSAY SYSTEM | RECORDED RESULT |
| --- | --- | --- |
| Cc1nnc2ccc(NCCO)nn12 | BRD4 BD1 (Homo sapiens) | > 32 µM |
| Cc1nnc2ccc(NCCc3c[nH]c4ccc(F)cc34)nn12 | BRD4 BD1 (Homo sapiens) | 29 µM |
| Cc1nnc2ccc(N3C4CCC3COC4)nn12 | BRD4 BD1 (Homo sapiens) | > 32 µM |
| Fc1ccc2[nH]c3c(c2c1)CCN(c1ccc2nnc(-c4ccccc4F)n2n1)C3 | BRD4 BD1 (Homo sapiens) | > 32 µM |

Recall the recorded IC50 for FC(F)(F)c1nnc2ccc(NCC(c3ccccc3)c3c[nH]c4ccccc34)nn12 (stereo not drawn) with BRD4 BD1 (Homo sapiens) and state it.
23.4 µM

Recall the recorded IC50 for Cc1nnc2ccc(NCc3ccccc3)nn12 with BRD4 BD1 (Homo sapiens) and state it.
10.2 µM

Recall the recorded IC50 for CCS(=O)(=O)NCCNc1ccc2nnc(C)n2n1 with BRD4 BD1 (Homo sapiens) and state it.
> 32 µM

---

- ASSAY SYSTEM: BRD4 BD2 (Homo sapiens, UniProt O60885)
- ASSAY COMMENT: AlphaScreen assay, BRD4 BD2 inhibition
pIC50: −log10 of the molar value.
QUANTITY: pIC50

[a] CCc1nnc2ccc(NC(CO)Cc3c[nH]c4ccccc34)nn12 (stereo not drawn)
[b] FC(F)(F)c1nnc2ccc(NCCc3c[nH]c4ccccc34)nn12
pIC50 comparison. Which is larger, a or b ? Response format: the label of the selected entry.
b
(b: 4.95, a: 4.44)

---

- ASSAY SYSTEM: BRD4 BD1 (Homo sapiens, UniProt O60885)
- ASSAY COMMENT: AlphaScreen assay, BRD4 BD1 inhibition
- Assay type: binding
- ASSAY CONTEXT: Supplementary Table S2; mean of three independent measurements; 8-point titration from 0.0096 to 32 μM; read-out: IC50 (μM) for BD1
Reported IC50 values are given for each entry in this list.

| COMPOUND | IC50 |
| --- | --- |
| Cc1nnc2ccc(NCCNC(=O)c3ccccc3)nn12 [Compound 39] | > 32 µM |
| Cc1nnc2ccc(N3CCC4(CC3)CNC4)nn12 [Compound 23] | > 32 µM |
| COc1ccc2[nH]cc(CCNc3ccc4nnc(C)n4n3)c2c1 [Compound 8] | 25.7 µM |
| Cc1nnc2ccc(N3CCC4(CCNCC4)CC3)nn12 [Compound 22] | > 32 µM |
| CC(C)c1nnc2ccc(N3CCC(C(=O)NC4CC4)CC3)nn12 [Compound 26] | > 32 µM |
| Cc1nnc2ccc(N3CCC4(CC3)OCCO4)nn12 [Compound 20] | > 32 µM |

For the compound Cc1nnc2ccc(NCCNC(=O)Nc3ccccc3)nn12 [Compound 40] , what IC50 is on record?
> 32 µM

For the compound CC(C)c1nnc2ccc(N3CCC(C(=O)O)CC3)nn12 [Compound 24] , what IC50 is on record?
> 32 µM

For the compound Cc1nnc2ccc(N3CCSCC3)nn12 [Compound 17] , what IC50 is on record?
> 32 µM

For the compound Cc1nnc2ccc(N3CCOCC3)nn12 [Compound 16] , what IC50 is on record?
> 32 µM

For the compound Cc1nnc2ccc(N3CCC4(CC3)CN(C(=O)OC(C)(C)C)C4)nn12 [Compound 21] , what IC50 is on record?
6.21 µM

For the compound CC1CCN(c2ccc3nnc(CNS(=O)(=O)N(C)C)n3n2)CC1 [Compound 15] , what IC50 is on record?
> 32 µM

For the compound COc1ccc(CNc2ccc3nnc(C)n3n2)cc1 [Compound 37] , what IC50 is on record?
8.91 µM

For the compound CCOC(=O)CCNc1ccc2nnc(C)n2n1 [Compound 33] , what IC50 is on record?
7.51 µM
